Where do these numbers come from? They come from PubChem BioAssay (NCATS).

test system: HEK293T; test: qHTS assay to identify novel small-molecules to repurpose for Merkel cell carcinoma treatment (AID 1296009); details: MCC and control cell lines, CellTiter-Glo viability, 72 h; series mostly up to 44.8 µM; also: nearly all actives have a fitted effect of over 60% in size
Results filed as inconclusive are left out. Activity calls are given as the source filed them. Calls follow the shape of the dose curve; as a rule, active = well fitted inhibition curve with a large enough effect; inconclusive = small, poorly fitted or top-dose-only effect; inactive = flat fitted curve, though single readings scatter.
recorded.endpoint: outcome

C[C@H](NCc1ccc(OCc2ccccc2F)cc1)C(N)=O = inactive
C=CC1(C)CC2=CCC3C(C)(C(=O)O)CCCC3(C)C2CC1OC(C)=O (centres undefined) = inactive
CCCCNC(=O)[C@@H]1Cc2ccccc2N1C(=O)[C@@H](N)CC = inactive

* * *

test system: NIH3T3; experiment: qHTS assay to identify novel small-molecules to repurpose for Merkel cell carcinoma treatment (AID 1296009); settings: MCC and control cell lines, CellTiter-Glo viability, 72 h; at 44.8 µM (top of the series) unless noted; also: nearly all actives have a fitted effect of over 60% in size
Results filed as inconclusive are left out. Active and inactive are the calls of the source. Calls follow the shape of the dose curve; as a rule, active = well fitted inhibition curve with a large enough effect; inconclusive = small, poorly fitted or top-dose-only effect; inactive = flat fitted curve, though single readings scatter. *1 amine or outer side, *2 acyl side, *3 side chain or, on linkers, in order; H or OH if unused. Where a SMILES comes first, the peptide text is derived from it. Bridges are numbered along the chain shown (N, C = ends). X6 = O=C(CCC[*:2])[*:1]
recorded.endpoint: outcome

C=C1[C@@H]2CC[C@@]3(C)[C@H](c4ccoc4)OC(=O)C[C@]13O[C@H]1CC(=O)C(C)(C)[C@H](CC(=O)OC)[C@]12C = inactive [at 17.4 µM]
CC[C@H](C)[C@@H]1NC(=O)[C@H](Cc2ccc(OC)cc2)NC(=O)CCCSC[C@@H](C(=O)N2CCC[C@H]2C(=O)N[C@@H](CC(C)C)C(=O)NCC(N)=O)NC(=O)[C@H](CC(N)=O)NC(=O)[C@H](CCC(N)=O)NC1=O (Y(Me)IQNCPLG-NH2; linker N-5 via X6) = inactive
CCCn1cnc2c(NCc3ccccc3)nc(N[C@H](CC)CO)nc21 = inactive
O=C(O[C@H]1[C@@H]2C=CO[C@@H](O[C@@H]3O[C@H](CO)[C@@H](O)[C@H](O)[C@H]3O)[C@@H]2[C@@]2(CO)O[C@@H]12)c1ccc(O)cc1 = inactive [at 17.4 µM]
C[C@@H]1O[C@@H](O[C@H]2[C@H](OC(C#N)c3ccc(O)cc3)O[C@H](CO)[C@@H](O)[C@@H]2O)[C@H](O)[C@H](O)[C@H]1O (some centres not stated) = inactive [at 17.4 µM]

(Q) Which outcome is reported with NIH3T3 for this entry: "C/C=C/C1=CC2=C(CO1)C(=O)[C@](C)(O)[C@H](OC(=O)c1c(O)cc(OC)c(O)c1C)C2" ?
(A) inactive [at 17.4 µM]

(Q) Which outcome is reported with NIH3T3 for this entry: CC1(C)CCCC2(C)C(CO)C3CCC2C31 (configuration not stated) ?
(A) inactive

(Q) Which outcome is reported with NIH3T3 for this entry: C=C1CC2C3(C)C(O)CC(=O)C(C)(C)C3C(OC(C)=O)C(OC(C)=O)C2(C)C2C(=O)OC(C)(C(=O)OC)C(=O)C12C (configuration not stated) ?
(A) inactive [at 17.4 µM]

(Q) Which outcome is reported with NIH3T3 for this entry: C=CC(C)(C)C1(CC2NC(=O)C3CCCN3C2=O)C(=O)Nc2cc3c(cc21)C=CC(C)(C)O3 (configuration not stated) ?
(A) inactive [at 17.4 µM]
